Origin of values: paper PMC9482650

target: MAGI2_4, Q86UL8; experiment: holdup assay; set-up: key: below the threshold = too weak to quantify, mostly under pKd 3.1 to 4; settings: plain residues with an end cap or a label only (N-terminal biotin on a linker: ado-ado)
Sequence (Q86UL8 772-865): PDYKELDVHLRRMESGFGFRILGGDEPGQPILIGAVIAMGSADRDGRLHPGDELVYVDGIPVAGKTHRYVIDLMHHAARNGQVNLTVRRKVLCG
measurementType: pKd

Example entries and their recorded answers appear below.
PLATCDETSI [SEMA4F, O95754] = below the threshold
IGHEDLETAV [DGKI, O75912] = below the threshold
FLVTEFNVML [DFNB31, Q9P202] = below the threshold
SAGADSETHC [SLCO1B1, Q9Y6L6] = below the threshold
VKQYADVEGF [HNRNPK, P61978;P61978-2] = below the threshold
GNDPDRGTSI [GRID2, O43424] = below the threshold
DAAHHDESNC [FMNL3, Q8IVF7] = below the threshold
VCMGDHWFDV [PRKN, O60260] = 4.04

Query :: pKd for FVFESRKEIL [TBPL1, P62380] ?
Result :: below the threshold

Query :: Please do the same for PKSNSSKEYV [CLDN7, O95471] as well.
Result :: below the threshold

Query :: Queued: MQILSKPEFI [NPSR1, Q6W5P4]
Result :: below the threshold

Query :: What would you report for QRYPGNQTTC [CCL24, O00175] ?
Result :: below the threshold
